- System: wild-type EZH2 (PRC2 complex) (Homo sapiens (Human), UniProt Q15910)
- Sequence (Q15910 other isoform, or with tags, fused parts or gaps): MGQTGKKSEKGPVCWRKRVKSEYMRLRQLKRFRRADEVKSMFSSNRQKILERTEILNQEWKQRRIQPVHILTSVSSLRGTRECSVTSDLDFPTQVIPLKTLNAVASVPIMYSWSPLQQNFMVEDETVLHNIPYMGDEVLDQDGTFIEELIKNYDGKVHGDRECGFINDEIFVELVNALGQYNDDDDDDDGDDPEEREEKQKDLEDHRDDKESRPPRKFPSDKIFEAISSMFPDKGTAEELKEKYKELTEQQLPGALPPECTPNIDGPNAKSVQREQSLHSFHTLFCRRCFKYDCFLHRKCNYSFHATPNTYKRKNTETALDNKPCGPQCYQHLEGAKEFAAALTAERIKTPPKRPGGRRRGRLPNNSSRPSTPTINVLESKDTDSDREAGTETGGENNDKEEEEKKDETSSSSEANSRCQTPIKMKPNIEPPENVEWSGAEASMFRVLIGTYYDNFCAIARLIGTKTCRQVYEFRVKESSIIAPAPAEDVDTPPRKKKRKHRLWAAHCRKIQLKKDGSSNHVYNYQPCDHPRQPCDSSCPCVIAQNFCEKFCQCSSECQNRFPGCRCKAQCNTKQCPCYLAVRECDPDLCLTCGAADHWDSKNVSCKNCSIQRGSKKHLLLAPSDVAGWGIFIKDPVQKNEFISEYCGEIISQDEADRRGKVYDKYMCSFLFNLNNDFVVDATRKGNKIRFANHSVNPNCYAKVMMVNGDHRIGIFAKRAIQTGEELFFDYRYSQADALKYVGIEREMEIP
- Sequence (O75530 whole entry partner): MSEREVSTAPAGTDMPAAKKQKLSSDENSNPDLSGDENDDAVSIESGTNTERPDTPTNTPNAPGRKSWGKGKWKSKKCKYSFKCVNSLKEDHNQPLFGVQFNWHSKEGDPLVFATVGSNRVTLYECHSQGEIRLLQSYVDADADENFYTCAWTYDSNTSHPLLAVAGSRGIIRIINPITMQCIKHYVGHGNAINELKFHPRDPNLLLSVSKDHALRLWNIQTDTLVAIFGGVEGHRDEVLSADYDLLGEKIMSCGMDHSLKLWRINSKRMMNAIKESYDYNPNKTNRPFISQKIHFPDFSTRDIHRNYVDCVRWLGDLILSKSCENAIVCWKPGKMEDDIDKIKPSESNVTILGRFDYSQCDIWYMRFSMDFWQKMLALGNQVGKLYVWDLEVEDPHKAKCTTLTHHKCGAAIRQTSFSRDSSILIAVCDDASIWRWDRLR
- Sequence (Q15022 whole entry partner): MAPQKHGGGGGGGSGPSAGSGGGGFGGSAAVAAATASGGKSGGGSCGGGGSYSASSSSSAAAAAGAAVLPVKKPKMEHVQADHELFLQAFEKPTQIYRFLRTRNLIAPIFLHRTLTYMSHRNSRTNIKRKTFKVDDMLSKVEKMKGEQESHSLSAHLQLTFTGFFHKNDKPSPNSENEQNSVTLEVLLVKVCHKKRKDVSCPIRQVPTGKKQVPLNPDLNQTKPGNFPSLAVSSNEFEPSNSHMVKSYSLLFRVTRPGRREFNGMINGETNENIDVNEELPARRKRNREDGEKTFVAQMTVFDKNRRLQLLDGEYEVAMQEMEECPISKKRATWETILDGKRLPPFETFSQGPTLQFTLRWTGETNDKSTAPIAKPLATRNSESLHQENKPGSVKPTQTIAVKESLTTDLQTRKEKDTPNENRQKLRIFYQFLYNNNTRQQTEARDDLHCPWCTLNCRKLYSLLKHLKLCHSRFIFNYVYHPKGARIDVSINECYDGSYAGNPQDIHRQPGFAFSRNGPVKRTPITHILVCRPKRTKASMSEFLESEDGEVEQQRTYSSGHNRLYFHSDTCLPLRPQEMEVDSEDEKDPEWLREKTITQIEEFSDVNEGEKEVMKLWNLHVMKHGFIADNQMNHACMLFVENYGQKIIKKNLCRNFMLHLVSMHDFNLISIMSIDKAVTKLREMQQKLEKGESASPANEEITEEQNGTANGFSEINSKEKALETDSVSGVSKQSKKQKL
- Sequence (Q09028 whole entry partner): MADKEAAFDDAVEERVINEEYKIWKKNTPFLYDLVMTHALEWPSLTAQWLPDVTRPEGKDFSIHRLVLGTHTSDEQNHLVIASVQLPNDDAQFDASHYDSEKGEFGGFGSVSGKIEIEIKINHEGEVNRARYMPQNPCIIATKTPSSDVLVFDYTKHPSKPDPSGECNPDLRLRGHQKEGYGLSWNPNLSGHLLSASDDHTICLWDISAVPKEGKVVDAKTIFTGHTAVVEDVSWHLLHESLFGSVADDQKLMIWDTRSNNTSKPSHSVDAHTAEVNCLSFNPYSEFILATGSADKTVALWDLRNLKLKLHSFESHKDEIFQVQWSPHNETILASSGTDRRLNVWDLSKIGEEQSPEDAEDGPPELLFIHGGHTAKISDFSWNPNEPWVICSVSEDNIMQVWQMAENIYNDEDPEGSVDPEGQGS
- Test protocol: PRC2 enzyme assay on peptide substrates (wild-type EZH2)
pIC50: −log10 of the molar value.
Measured parameter: pIC50

>>> df
                                   compound                                    system  measured_parameter  assay_value
0  CCN(c1cc(-c2ccc(OCCO)cc2)cc(C(=O)NCc2c(C)cc(C)[nH]c2=O)c1C)[C@H]1CC[C@H](N(C)C)CC1 [Compound 3]  wild-type EZH2 (PRC2 complex) (Homo sapiens (Human), UniProt Q15910)               pIC50         7.95

A = CCN(c1cc(-c2ccc(OCCO)nc2)cc(C(=O)NCc2c(C)cc(C)[nH]c2=O)c1C)[C@H]1CC[C@H](N(C)C)CC1 [Compound 4]
B = CCN(c1cc(OCCOC)cc(C(=O)NCc2c(C)cc(C)[nH]c2=O)c1C)[C@H]1CC[C@H](N(C)CCOC)CC1 [Compound 12]
// which entry reports the smaller pIC50, A or B ? // output: label of the selected item B
(B: 7.54, A: 8.05)

Reference source for all entries: patent US11642348B2
